Target under test: Hexose transporter 1 (Plasmodium falciparum) (UniProt O97467)
Test description: ST_JUDE_LEISH: Cytotoxicity at 2uM final concentration against transgenic Leishmania Mexicana promastigotes LmPfHT that are glucose transport deficient and complemented with the Plasmodium falciparum hexose transporter. Activity is measured by DNA content using SYBR green in vitro
Format: functional
Assay readout: inhibition (%)
Answer in %, number only, no unit symbol.

input: Fill in: inhibition of `O=C(CC(=O)C(F)(F)F)c1ccc2c(c1)OCO2` is ___
output: 1.74

input: Quick one: inhibition for `COc1ccccc1C(=O)Nc1cccc(N2CCC(NCc3ccc(-n4cccn4)cc3)CC2)c1` ?
output: 10.7

input: Request the reported inhibition associated with `N#Cc1cccc(NC(=O)Nc2cccc(-c3cccc(-c4nc5cc(F)ccc5[nH]4)c3)c2)c1`
output: 7.87

input: Name the reported inhibition value associated with the molecule `N#CCSc1nnc(-c2ccccc2)c2ccccc12`
output: 9.44

input: Consider the molecule shown here: `Cc1ccc(N)cc1-c1nc(NC2CC(C)(C)NC(C)(C)C2)nc2c1ccc(=O)n2-c1c(F)cccc1F` What is its recorded inhibition?
output: 1.28

input: Data request, read-out inhibition, for `CCOc1cc(CC)ccc1C1CCN(CCCCNC(=O)c2ccc(NC(=O)c3ccc(Cl)cc3)cc2)CC1`
output: 2.23

input: Consider the molecule `COc1c(C)cc(I)cc1CNCCCNc1cc(=O)c2ccccc2[nH]1` and give its measured inhibition.
output: -0.66

input: Return reported inhibition; argument: `O=C(Nc1cccc(-c2ccc(-c3nc4cc(C(F)(F)F)ccc4[nH]3)cc2)c1)Nc1ccc(Cl)c(Cl)c1`
output: 2.8

input: Entry `O=C(NCCCCN1CCC(c2ccc3c(c2OCCOCCO)CCCC3)CC1)c1ccc(-c2ccc(C(F)(F)F)cc2)cc1` : reported inhibition = ?
output: 2.47

* * *

Record form. Attribute: inhibition. Fill in for each entry.
Target under test: Hexose transporter 1 (Plasmodium falciparum)
Test description: ST_JUDE_LEISH: Cytotoxicity at 2uM final concentration against transgenic Leishmania Mexicana promastigotes LmPfHT that are glucose transport deficient and complemented with the Plasmodium falciparum hexose transporter. Activity is measured by DNA content using SYBR green in vitro
Format: functional
Supply the numeric figure in %, leaving out any unit text.

input: Form field: reported inhibition of `CN1CCC(N(Cc2ccc(-c3ccc(C(F)(F)F)cc3)nc2)C(=O)Cn2c(CCc3cccc(F)c3F)cc(=O)c3ccccc32)CC1`
output: 6.06

input: // query inhibition value for entry `CC(C)CC(=O)N1CCNC[C@@H]1C(=O)NCCSCc1c(F)cccc1Cl`
output: 5.07

input: Need inhibition of `CN(C)CCCc1cc(NC(=O)Nc2cccc(Cl)c2Cl)ccc1I` , thanks.
output: 5.95

input: Record request: inhibition value, item `CC(=O)Oc1cc(OCc2ccccc2)c(OC(C)=O)c(OCc2ccccc2)c1`
output: 5.31

input: GET /values?readout=inhibition&item= `CN(C)CCCOC(=O)c1cc2cc(-c3ccccc3)ccc2n1S(=O)(=O)Cc1ccccc1`
output: 10.6

input: Can you look up the measured inhibition of COc1ccc2ncc(F)c(NC(=O)C3CCC(NCc4cc5cc(F)cc(F)c5[nH]4)CC3)c2n1 (centres undefined) for me?
output: 78.5

input: Data request, read-out inhibition, for Cc1nc(-c2cccc(Nc3nccc(NCC(O)c4cccc(C(F)(F)F)c4)n3)c2)cs1 (centres undefined)
output: 0.83

input: Which inhibition reading was recorded for the molecule `CCN(CC)CCON=Cc1cc(C)c2[nH]c3ccc(OCc4ccccc4)cc3c2c1C` ?
output: 0.92

input: Bench note: what inhibition did `Fc1ccc2[nH]c(-c3cccc(-c4ccc(CNCc5cnn(-c6ccccc6)n5)cc4)c3)nc2c1` show?
output: 1.9

* * *

Target under test: Solute carrier family 2, facilitated glucose transporter member 1 (Homo sapiens) (UniProt P11166)
Sequence (P11166 whole entry): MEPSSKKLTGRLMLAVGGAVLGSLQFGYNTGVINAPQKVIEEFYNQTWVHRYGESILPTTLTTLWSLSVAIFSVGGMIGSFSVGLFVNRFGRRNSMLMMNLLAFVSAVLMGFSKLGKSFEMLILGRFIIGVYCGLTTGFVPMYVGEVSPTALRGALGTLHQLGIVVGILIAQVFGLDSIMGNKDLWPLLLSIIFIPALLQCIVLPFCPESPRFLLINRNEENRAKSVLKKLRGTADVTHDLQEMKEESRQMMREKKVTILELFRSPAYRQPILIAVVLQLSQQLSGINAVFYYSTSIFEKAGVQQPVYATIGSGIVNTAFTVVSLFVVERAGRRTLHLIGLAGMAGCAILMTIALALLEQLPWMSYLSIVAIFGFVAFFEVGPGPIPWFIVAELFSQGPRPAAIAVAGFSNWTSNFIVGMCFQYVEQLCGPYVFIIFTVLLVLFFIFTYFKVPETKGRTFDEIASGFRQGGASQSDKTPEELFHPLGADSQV
Test description: ST_JUDE_LEISH: Cytotoxicity at 2uM final concentration against transgenic Leishmania Mexicana promastigotes LmGLUT1 that are glucose transport deficient and complemented with the human glucose transporter GLUT1. Activity is measured by DNA content using SYBR green in vitro
Type: functional
Decide using inhibition: a value greater than or equal to 5% is criterion met, a smaller one is criterion not met.

input: Entry CN(CCCCCN1CCC(NC(=O)Nc2ccc(C(F)(F)F)cc2)C1)C(=O)/C=C/c1ccc(Cl)c(Cl)c1 (centres undefined) : is its inhibition no less than 5%?
output: criterion not met

input: Is inhibition at least 5%? Consider `Nc1c2ccccc2nc2ccc(-c3ccccc3)cc12`
output: criterion met

input: Check this compound for inhibition at or above 5%: `Nc1nc(N)c2c3c(cnc2n1)CCCC3`
output: criterion met

input: In plain terms: is recorded inhibition at least 5% for `CC[C@H](C)CNC(=O)c1cncc(-c2ccc(CN3CCC(N4CCCC4)CC3)cc2)c1` ?
output: criterion not met

input: Reported inhibition reaches at least 5% for `O=C(Nc1cccc(-c2cccc(-c3nc4ccccc4[nH]3)c2)c1)c1csnn1` ?
output: criterion met

input: Decide: inhibition of `COc1c(C2CCN(CCCCNC(=O)c3ccc(-c4ccc(C(F)(F)F)cc4)c(C(=O)OC(C)C)c3)CC2)ccc2c1CCCC2` >= 5%?
output: criterion not met

input: Threshold query (inhibition >= 5%) on Cc1ccc(N2C(=O)C3C(C2=O)C2(c4ccccc4)C(=O)C3(c3ccccc3)C(c3ccccc3)=C2c2ccccc2)cc1 (centres undefined)
output: criterion not met

input: Test whether the compound `CCOC(=O)C1CCN(CCOc2cc(NC(=O)/C=C/c3ccccc3Cl)ccc2Br)CC1` records inhibition of 5% or higher.
output: criterion met

input: Entry `c1cc(-c2ccc(CNCCc3ccncc3)cc2)cc(-c2nc3ccccc3[nH]2)c1` : is its inhibition no less than 5%?
output: criterion not met

* * *

Assign inhibition to each entry below.
Target under test: Solute carrier family 2, facilitated glucose transporter member 1 (Homo sapiens)
Test description: ST_JUDE_LEISH: Cytotoxicity at 2uM final concentration against transgenic Leishmania Mexicana promastigotes LmGLUT1 that are glucose transport deficient and complemented with the human glucose transporter GLUT1. Activity is measured by DNA content using SYBR green in vitro
Format: functional
Report the figure in % without appending any unit label.

input: Could you share which inhibition value was measured for `CCOc1c(C)cc(C(F)(F)F)cc1CNCCCNc1cc(=O)c2ccccc2[nH]1` ?
output: 5.27

input: inhibition lookup needed for `CCCCOc1cc(C)nc2ccc(NC(=O)COCC(=O)Nc3ccc4nc(C)cc(OCCCC)c4c3)cc12` , thanks.
output: 14.9

input: Look up inhibition for this molecule: `O=C(N[C@H]1CCN(Cc2ccc(OCCN3CCNCC3)c(Cl)c2)C1)c1ccc(Cl)c(Cl)c1`
output: -1.27

input: // lookup inhibition for `CCCCCCN1CCCN(Cc2ccc(C(=O)Nc3cccc(CC)c3)cc2)CC1`
output: 4.76

input: Value lookup for inhibition; key = `CC(=O)Nc1ccc(OCCN(Cc2ccccc2C(F)(F)F)c2ccc(C#N)c(C(F)(F)F)c2)c(Cl)c1`
output: 2.42

* * *

Exercise: state measured inhibition for each of the compounds provided.
Target under test: Hexose transporter 1 (Plasmodium falciparum) (UniProt O97467)
Test description: ST_JUDE_LEISH: Cytotoxicity at 2uM final concentration against transgenic Leishmania Mexicana promastigotes LmPfHT that are glucose transport deficient and complemented with the Plasmodium falciparum hexose transporter. Activity is measured by DNA content using SYBR green in vitro
Assay type: functional
# unit: % | format: bare number

input: GET /values?readout=inhibition&item= `O=c1cc(NCCCNCc2ccc(Cl)c(Cl)c2)[nH]c2ccc(Oc3ccccc3)cc12`
output: -1.42

input: Suppose we examine the compound `O=C(/C=C/c1cccc2c1OCO2)Nc1ccnc2ccncc12` ; what inhibition value has been reported?
output: 1.4

input: Record request: inhibition value, item `COC(=O)c1noc(C)c1I`
output: 0.08

input: Consider the compound `CCCCN(CCCC)CCCN(CCCN(CCCC)CCCC)c1cc(C)nc(Nc2ccc(Br)cc2)n1` and give its measured inhibition.
output: -0.35

input: Consider the compound shown here: `CC(=O)N(Cc1nc(-c2cc(C(F)(F)F)cc(C(F)(F)F)c2)cs1)c1c(C)cccc1C` What is its recorded inhibition?
output: 4.86

* * *

Could you please report measured inhibition for the items listed next?
Target under test: Hexose transporter 1 (Plasmodium falciparum)
Test description: ST_JUDE_LEISH: Cytotoxicity at 2uM final concentration against transgenic Leishmania Mexicana promastigotes LmPfHT that are glucose transport deficient and complemented with the Plasmodium falciparum hexose transporter. Activity is measured by DNA content using SYBR green in vitro
Assay type: functional
Numbers only; they are read as %.

input: Given the entry `COc1ccc(NC(=O)c2cccc(Br)c2)cc1N1CCN(CCCCCCCN2CCN(c3cc(NC(=O)c4cccc(Br)c4)ccc3OC)CC2)CC1` , what inhibition was observed with Hexose transporter 1 (Plasmodium falciparum)?
output: 2.27

input: So what inhibition did `Cc1nn(-c2ccnc3cc(Cl)ccc23)c(C)c1C(=O)NCc1cc(Cl)cc(Cl)c1` get with Hexose transporter 1 (Plasmodium falciparum)?
output: -0.98

input: Form field - read-out: inhibition; system: Hexose transporter 1 (Plasmodium falciparum); submitted item: `COc1cc(NC(=O)/C=C/c2cc(F)cc(F)c2F)cc(OCCN2CCCCC2)c1`
output: 3.35

input: I'm curious: which inhibition was measured for `Cn1nccc1C(=O)NCCNCc1cccc(-c2ccc(-c3nc4cc(C(F)(F)F)ccc4[nH]3)s2)c1` tested on Hexose transporter 1 (Plasmodium falciparum)?
output: 15.5

input: API: value(readout= inhibition, system= Hexose transporter 1 (Plasmodium falciparum), query= `CC(C)(C)OC(=O)Nc1cccc(-c2csc(NC(=N)N)n2)c1` )
output: 0.42

input: // fetch Hexose transporter 1 (Plasmodium falciparum) inhibition for `CC[C@H](C)CNC(=O)c1ccnc(-c2cccc(CN(C)C3CCN(C)CC3)c2)c1`
output: 2.4

input: Quick check: inhibition on Hexose transporter 1 (Plasmodium falciparum), item Cc1nn(-c2ccccc2)c2c1C(c1ccc(C(C)C)cc1)N1C(=N2)N(Cc2ccccc2)c2ccccc21 (centres undefined) ?
output: 2.86

input: Recall the recorded inhibition for `CC(C)CNC(=O)CN1C(=O)C(c2ccccc2)(c2ccccc2)N=C1N` with Hexose transporter 1 (Plasmodium falciparum) and state it.
output: 4.66

input: What reported inhibition corresponds to `Cc1nc(C)c(-c2ccc(Cl)cc2Cl)c(O)c1Br` on Hexose transporter 1 (Plasmodium falciparum)?
output: 0.95

input: Lab request: please report inhibition under test system Hexose transporter 1 (Plasmodium falciparum) for `c1cncc(Oc2ccc(Nc3ccnc4cc(-c5cccc(CNCCN6CCOCC6)c5)ccc34)cc2)c1`
output: -1.57

input: Give inhibition (Hexose transporter 1 (Plasmodium falciparum)) of the following molecule: CC(C)C[C@H](NC(=O)c1cc2cc(OCCN3CCNCC3)ccc2o1)C(=O)NC1CC[C@@H](C)N(C(=O)Nc2ccc(Cl)cc2)CC1=O (some centres undefined)
output: 5.04

input: Field: inhibition (Hexose transporter 1 (Plasmodium falciparum)). Entry: `COCCN1CCN(Cc2ccc(-c3cccc(-c4nc5ccccc5[nH]4)c3)cc2)CC1`
output: -1.3

input: Field: inhibition (Hexose transporter 1 (Plasmodium falciparum)). Entry: `CCNc1cc(C(=O)N[C@@H](Cc2ccccc2)[C@H](O)CNC2CCC(C)(C)CC2)cc(N2CCCCS2(=O)=O)c1`
output: 1.73

input: Field: inhibition (Hexose transporter 1 (Plasmodium falciparum)). Entry: `OCCN1CCN(c2ccc(Nc3ccnc4cc5ccccc5cc34)cc2)CC1`
output: 33.3

input: For the record `COc1ccc(-c2cccc(NC(=O)c3ccc(Cl)cc3)c2)cc1CN1CCC(O)CC1` , what value of inhibition is listed for Hexose transporter 1 (Plasmodium falciparum)?
output: 0.09

input: Record `CN(C)CCNCc1nc(-c2ccc3c(Nc4ccc(Cl)cc4F)ccnc3c2)cs1` : what is its inhibition with Hexose transporter 1 (Plasmodium falciparum)?
output: 8.58

input: Find inhibition (Hexose transporter 1 (Plasmodium falciparum)) for the entry O=C(Nc1cc(Cl)cc(Cl)c1)N[C@H]1CCN(CCCCCNC(=O)C2CC2c2ccc(Cl)c(Cl)c2)C1 (some centres undefined)
output: -1.16

input: Short answer please: inhibition, Hexose transporter 1 (Plasmodium falciparum), entry `CSc1ccc(NC(=O)Nc2cc(C)nc3ccccc23)cc1Br`
output: 0.36

input: // map Cc1ccccc1C1CCN(C2CCC(NC(=O)/C=C/c3ccc(F)cc3)CC2)CC1 (centres undefined) to recorded inhibition (system: Hexose transporter 1 (Plasmodium falciparum))
output: -0.14
